# Tested on: renal brush border enzymes (RBBMVs)
# experimental-protocol: Enzyme inhibition study of RBBMV-mediated cleavage of the GFK linkage
# Type: biochemical, rat
# test-conditions: RBBMVs 10 mg/mL, 1 mM inhibitor, 37 °C, 5 or 24 h, TLC
recorded-metric: inhibition of release of [64Cu]Cu-cyclam-G from [64Cu]Cu-cyclam-GFK(Bz)

NC(N)=NCCSCC(CS)C(=O)O (stereo not shown) ... not inhibited
CC1(C)C[C@@H]1C(=O)N/C(=C\CCCCSC[C@H](N)C(=O)O)C(=O)O ... not inhibited

###

# System: renal brush border enzymes (RBBMVs)
# experimental-protocol: Enzyme inhibition study of RBBMV-mediated cleavage of the GFK linkage
# Assay type: biochemical, rat
# test-conditions: RBBMVs 10 mg/mL, 1 mM inhibitor, 37 °C, 5 or 24 h, TLC
recorded-metric: inhibition of release of radiometabolite-X from [64Cu]Cu-cyclam-GFK(Bz)

NC(N)=NCCSCC(CS)C(=O)O (stereo not shown) [mergetpa] ... partially inhibited
C[C@H](CS)C(=O)N1CCC[C@H]1C(=O)O [captopril] ... partially inhibited
